SYSTEM_NAME: Epithelial discoidin domain-containing receptor 1 (Homo sapiens)
Sequence (Q08345 whole entry, the tested form may be a part): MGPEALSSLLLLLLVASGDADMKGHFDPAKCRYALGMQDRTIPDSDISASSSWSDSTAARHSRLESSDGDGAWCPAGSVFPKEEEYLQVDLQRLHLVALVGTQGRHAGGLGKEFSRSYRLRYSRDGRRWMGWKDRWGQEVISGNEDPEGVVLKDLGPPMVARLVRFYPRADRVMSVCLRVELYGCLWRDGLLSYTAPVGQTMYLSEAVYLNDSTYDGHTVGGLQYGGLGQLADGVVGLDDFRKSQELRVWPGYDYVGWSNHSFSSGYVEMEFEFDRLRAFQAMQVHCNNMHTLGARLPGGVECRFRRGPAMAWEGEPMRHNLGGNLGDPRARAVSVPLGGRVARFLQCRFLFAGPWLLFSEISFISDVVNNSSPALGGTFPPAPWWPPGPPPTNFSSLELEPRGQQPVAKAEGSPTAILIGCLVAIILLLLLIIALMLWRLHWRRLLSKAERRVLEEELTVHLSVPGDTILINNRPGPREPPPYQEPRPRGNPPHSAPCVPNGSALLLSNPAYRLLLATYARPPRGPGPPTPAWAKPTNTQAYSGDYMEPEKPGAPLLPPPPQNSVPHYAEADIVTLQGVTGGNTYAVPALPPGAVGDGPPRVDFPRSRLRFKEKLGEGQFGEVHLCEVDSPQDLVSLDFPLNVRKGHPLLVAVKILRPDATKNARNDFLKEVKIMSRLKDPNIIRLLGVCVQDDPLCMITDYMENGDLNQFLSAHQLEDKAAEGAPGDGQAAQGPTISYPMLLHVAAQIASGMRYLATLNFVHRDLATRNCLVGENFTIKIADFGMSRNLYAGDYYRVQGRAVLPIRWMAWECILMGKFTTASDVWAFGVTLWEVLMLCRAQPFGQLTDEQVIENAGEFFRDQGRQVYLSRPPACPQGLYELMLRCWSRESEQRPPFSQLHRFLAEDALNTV
TEST_DESCRIPTION: Inhibition of flag-tagged DDR1 (unknown origin) by TR-FRET assay
OUTCOME_MEASURE: IC50 (nM)
The response must be a number in nM with no trailing unit.

Check Epithelial discoidin domain-containing receptor 1 (Homo sapiens) data and give IC50 for O=C(Nc1cccc(C(F)(F)F)c1)c1ccc(C2CC2)c(-c2ccc3nc(Nc4cnn(C5CC5)c4)ncc3c2)c1 .
17.2

----------
SYSTEM_NAME: Epithelial discoidin domain-containing receptor 1 (Homo sapiens)
TEST_DESCRIPTION: Inhibition of GST-tagged recombinant DDR1 (unknown origin) expressed in Escherichia coli BL21 by DiscoverX KINOMEscan assay
OUTCOME_MEASURE: IC50 (nM)
The response must be a number in nM with no trailing unit.

Supply measured IC50 of Cc1ccc2c(Nc3cccc(C(F)(F)F)c3)noc2c1C#Cc1cn2ncccc2n1 in your reply.
10

Supply measured IC50 of O=C(CN1CN(c2ccccc2)C2(CCN(C(=O)c3ccc4[nH]ncc4c3)CC2)C1=O)NCC(F)(F)F in your reply.
15

Supply measured IC50 of O=C(CN1CN(c2ccccc2)C2(CCN(C(=O)c3ccc4[nH]ncc4n3)CC2)C1=O)NCC(F)(F)F in your reply.
18

----------
SYSTEM_NAME: Discoidin domain-containing receptor 2 (Homo sapiens, UniProt Q16832)
Sequence (Q16832 whole entry): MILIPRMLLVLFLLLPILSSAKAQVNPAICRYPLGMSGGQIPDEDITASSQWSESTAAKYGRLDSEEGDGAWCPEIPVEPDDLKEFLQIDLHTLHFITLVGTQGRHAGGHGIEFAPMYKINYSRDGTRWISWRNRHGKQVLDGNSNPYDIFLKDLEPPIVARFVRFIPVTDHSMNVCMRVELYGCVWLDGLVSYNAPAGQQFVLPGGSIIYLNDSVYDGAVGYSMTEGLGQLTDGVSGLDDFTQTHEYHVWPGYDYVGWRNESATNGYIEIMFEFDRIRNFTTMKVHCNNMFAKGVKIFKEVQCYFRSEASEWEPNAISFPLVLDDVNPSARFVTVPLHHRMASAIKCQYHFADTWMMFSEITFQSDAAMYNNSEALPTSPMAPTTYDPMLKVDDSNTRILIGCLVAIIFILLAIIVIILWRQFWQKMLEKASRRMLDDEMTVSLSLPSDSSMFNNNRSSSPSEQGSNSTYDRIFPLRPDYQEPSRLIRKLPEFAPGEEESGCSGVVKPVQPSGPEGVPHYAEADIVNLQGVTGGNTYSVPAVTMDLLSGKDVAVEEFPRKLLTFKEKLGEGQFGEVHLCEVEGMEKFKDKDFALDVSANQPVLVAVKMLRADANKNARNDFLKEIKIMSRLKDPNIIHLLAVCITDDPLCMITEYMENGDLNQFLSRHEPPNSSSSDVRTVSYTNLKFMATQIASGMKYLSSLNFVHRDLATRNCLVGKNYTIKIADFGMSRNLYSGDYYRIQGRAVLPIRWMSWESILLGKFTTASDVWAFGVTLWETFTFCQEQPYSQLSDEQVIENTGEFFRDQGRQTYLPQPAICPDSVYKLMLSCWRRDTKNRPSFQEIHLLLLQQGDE
TEST_DESCRIPTION: Inhibition of DDR2 (unknown origin) using Fluorescein-Poly GAT as substrate by TR-FRET analysis
OUTCOME_MEASURE: IC50 (nM)
The response must be a number in nM with no trailing unit.

Supply measured IC50 of Cc1cccc(Cl)c1NC(=O)c1cnc(Nc2cc(N3CCN(C(=O)OCCN4CCOCC4)CC3)ncn2)s1 in your reply.
7.04
